This collection of values is drawn from paper PMC4984800.

experiment: First-in-human trial: pharmacokinetics in plasma and urine
Format: in vivo
protocol conditions: human, plasma, oral, 20 mg, Schedule 2, 20 mg, N=3; median (range)
observed property: Cmax (ng/mL)
Response body: numeric value in ng/mL, unit text excluded.

Quickly give me recorded Cmax for COc1cccc2cc(-c3nc([C@H]4CC[C@H](C(=O)O)CC4)n4ncnc(N)c34)[nH]c12 [OSI-027]
1240

* * *

experiment: First-in-human trial: pharmacokinetics in plasma and urine
Assay type: in vivo
protocol conditions: human, plasma, oral, 20 mg, Schedule 3, 20 mg, Day 22, N=5; median (range); read-out: T1/2 (converted)
observed property: half-life

Return half-life (reported value) for this compound: COc1cccc2cc(-c3nc([C@H]4CC[C@H](C(=O)O)CC4)n4ncnc(N)c34)[nH]c12 [OSI-027]
9.67 h

* * *

experiment: First-in-human trial: pharmacokinetics in plasma and urine
Format: in vivo
protocol conditions: human, plasma, oral, 10 mg, Schedule 2, 10 mg, N=4; median (range)
Procedure: Blood and urine samples were collected at prespecified time points for 24 h after initial dose and at days 2–3 (S2) and after multiple doses on days 3–4 (S1) and 22–23 (S3) across dose levels. Predose samples were collected on days 8, 15 and 22. […] Descriptive statistics were used to summarise the safety data, including all patients who received at least one dose of OSI-027. […] Response to treatment was evaluated according to Response Evaluation Criteria in Solid Tumors (RECIST) ([Therasse et al, 2000]).
observed property: AUC(0-inf)

Name the recorded AUC(0-inf) of the item `COc1cccc2cc(-c3nc([C@H]4CC[C@H](C(=O)O)CC4)n4ncnc(N)c34)[nH]c12` in your answer.
5530 ng·h/mL

* * *

experiment: First-in-human trial: pharmacokinetics in plasma and urine
Format: in vivo
protocol conditions: human, plasma, oral, 50 mg, Schedule 3, 50 mg, Day 1, N=3; median (range); read-out: T1/2 (converted)
observed property: half-life

Name the recorded half-life of the compound listed here: `COc1cccc2cc(-c3nc([C@H]4CC[C@H](C(=O)O)CC4)n4ncnc(N)c34)[nH]c12`
10.3 h

* * *

experiment: First-in-human trial: pharmacokinetics in plasma and urine
Type: in vivo
protocol conditions: human, plasma, oral, 25 mg, Schedule 3, 25 mg, Day 22, N=3; median (range); read-out: T1/2 (converted)
Protocol: Blood and urine samples were collected at prespecified time points for 24 h after initial dose and at days 2–3 (S2) and after multiple doses on days 3–4 (S1) and 22–23 (S3) across dose levels. Predose samples were collected on days 8, 15 and 22. […] Descriptive statistics were used to summarise the safety data, including all patients who received at least one dose of OSI-027. […] Response to treatment was evaluated according to Response Evaluation Criteria in Solid Tumors (RECIST) ([Therasse et al, 2000]).
observed property: half-life

Tell us which half-life value is on record for COc1cccc2cc(-c3nc([C@H]4CC[C@H](C(=O)O)CC4)n4ncnc(N)c34)[nH]c12 [OSI-027]
15 h

* * *

experiment: First-in-human trial: pharmacokinetics in plasma and urine
Assay type: in vivo
protocol conditions: human, plasma, oral, 15 mg, Schedule 2, 15 mg, N=7; median (range)
observed property: Cmax

Specify reported Cmax for the compound shown: `COc1cccc2cc(-c3nc([C@H]4CC[C@H](C(=O)O)CC4)n4ncnc(N)c34)[nH]c12`
894 ng/mL

* * *

experiment: First-in-human trial: pharmacokinetics in plasma and urine
Type: in vivo
protocol conditions: human, plasma, oral, 240 mg, Schedule 2, 240mg, N=15; median (range)
Method: Blood and urine samples were collected at prespecified time points for 24 h after initial dose and at days 2–3 (S2) and after multiple doses on days 3–4 (S1) and 22–23 (S3) across dose levels. Predose samples were collected on days 8, 15 and 22. […] Descriptive statistics were used to summarise the safety data, including all patients who received at least one dose of OSI-027. […] Response to treatment was evaluated according to Response Evaluation Criteria in Solid Tumors (RECIST) ([Therasse et al, 2000]).
observed property: AUC(0-inf) (µg·h/mL)
Lab book: enter the figure in µg·h/mL, no units written.

Identify the reported AUC(0-inf) for the following entry. COc1cccc2cc(-c3nc([C@H]4CC[C@H](C(=O)O)CC4)n4ncnc(N)c34)[nH]c12 [OSI-027]
125

* * *

experiment: First-in-human trial: pharmacokinetics in plasma and urine
Format: in vivo
protocol conditions: human, plasma, oral, 35 mg, Schedule 3, 35 mg, Day 1, N=4; median (range)
observed property: AUC(0-inf) (ng·h/mL)
Give the value, in units of ng·h/mL, as a plain number.

Answer with reported AUC(0-inf) of `COc1cccc2cc(-c3nc([C@H]4CC[C@H](C(=O)O)CC4)n4ncnc(N)c34)[nH]c12`
20200

* * *

experiment: First-in-human trial: pharmacokinetics in plasma and urine
Type: in vivo
protocol conditions: human, plasma, oral, 35 mg, Schedule 3, 35 mg, Day 1, N=4; median (range); read-out: T1/2 (converted)
observed property: half-life (h)
Lab book: enter the figure in h, no units written.

Using the record for `COc1cccc2cc(-c3nc([C@H]4CC[C@H](C(=O)O)CC4)n4ncnc(N)c34)[nH]c12` , state its measured half-life.
7.24

* * *

experiment: First-in-human trial: pharmacokinetics in plasma and urine
Assay type: in vivo
protocol conditions: human, plasma, oral, 65 mg, Schedule 1, 65 mg, Day 1, N=3; median (range)
observed property: AUC(0-inf) (ng·h/mL)
Numeric answer only, unit ng·h/mL assumed.

State its AUC(0-inf): `COc1cccc2cc(-c3nc([C@H]4CC[C@H](C(=O)O)CC4)n4ncnc(N)c34)[nH]c12`
50000

* * *

experiment: First-in-human trial: pharmacokinetics in plasma and urine
Format: in vivo
protocol conditions: human, plasma, oral, 20 mg, Schedule 1, 20 mg, Day 1, N=4; median (range); read-out: T1/2 (converted)
Procedure: Blood and urine samples were collected at prespecified time points for 24 h after initial dose and at days 2–3 (S2) and after multiple doses on days 3–4 (S1) and 22–23 (S3) across dose levels. Predose samples were collected on days 8, 15 and 22. […] Descriptive statistics were used to summarise the safety data, including all patients who received at least one dose of OSI-027. […] Response to treatment was evaluated according to Response Evaluation Criteria in Solid Tumors (RECIST) ([Therasse et al, 2000]).
observed property: half-life
Don't forget the unit after the number, please.

Name the recorded half-life of the item COc1cccc2cc(-c3nc([C@H]4CC[C@H](C(=O)O)CC4)n4ncnc(N)c34)[nH]c12 [OSI-027] in your answer.
5.09 h

* * *

experiment: First-in-human trial: pharmacokinetics in plasma and urine
Format: in vivo
protocol conditions: human, plasma, oral, 160 mg, Schedule 1, 160 mg, Day 1, N=5; median (range)
observed property: AUC(0-inf) (µg·h/mL)
// units = µg·h/mL; emit number, no label

Please look at this compound and report its AUC(0-inf): `COc1cccc2cc(-c3nc([C@H]4CC[C@H](C(=O)O)CC4)n4ncnc(N)c34)[nH]c12`
131

* * *

experiment: First-in-human trial: pharmacokinetics in plasma and urine
Type: in vivo
protocol conditions: human, plasma, oral, 10 mg, Schedule 3, 10 mg, Day 22, N=3; median (range); read-out: T1/2 (converted)
observed property: half-life (h)
Give the value in h but do not write h after it.

Specify half-life for COc1cccc2cc(-c3nc([C@H]4CC[C@H](C(=O)O)CC4)n4ncnc(N)c34)[nH]c12 [OSI-027] and stop.
6.54

* * *

experiment: First-in-human trial: pharmacokinetics in plasma and urine
Format: in vivo
protocol conditions: human, plasma, oral, 25 mg, Schedule 3, 25 mg, Day 22, N=3; median (range); read-out: AUC24hr
observed property: AUC(0-t) (ng·h/mL)
Give just the numeric value; ng·h/mL need not be written.

Recall and state the measured AUC(0-t) for `COc1cccc2cc(-c3nc([C@H]4CC[C@H](C(=O)O)CC4)n4ncnc(N)c34)[nH]c12` .
15200

* * *

experiment: First-in-human trial: pharmacokinetics in plasma and urine
Type: in vivo
protocol conditions: human, plasma, oral, 10 mg, Schedule 1, 10 mg, Day 1, N=6; median (range); read-out: T1/2 (converted)
observed property: half-life (h)
Answer with a number only, understood to be in h.

Supply half-life value. Item: `COc1cccc2cc(-c3nc([C@H]4CC[C@H](C(=O)O)CC4)n4ncnc(N)c34)[nH]c12`
5.98

* * *

experiment: First-in-human trial: pharmacokinetics in plasma and urine
Type: in vivo
protocol conditions: human, plasma, oral, patients; estimate, based on the weekly dose schedule; read-out: half-life (converted)
observed property: half-life

Could you please provide reported half-life for COc1cccc2cc(-c3nc([C@H]4CC[C@H](C(=O)O)CC4)n4ncnc(N)c34)[nH]c12 [OSI-027] ? Thanks!
~14 h
